Molecular target: Phosphatidylinositol 4,5-bisphosphate 3-kinase catalytic subunit gamma isoform (Homo sapiens, UniProt P48736)
Sequence (P48736 whole entry, canonical isoform): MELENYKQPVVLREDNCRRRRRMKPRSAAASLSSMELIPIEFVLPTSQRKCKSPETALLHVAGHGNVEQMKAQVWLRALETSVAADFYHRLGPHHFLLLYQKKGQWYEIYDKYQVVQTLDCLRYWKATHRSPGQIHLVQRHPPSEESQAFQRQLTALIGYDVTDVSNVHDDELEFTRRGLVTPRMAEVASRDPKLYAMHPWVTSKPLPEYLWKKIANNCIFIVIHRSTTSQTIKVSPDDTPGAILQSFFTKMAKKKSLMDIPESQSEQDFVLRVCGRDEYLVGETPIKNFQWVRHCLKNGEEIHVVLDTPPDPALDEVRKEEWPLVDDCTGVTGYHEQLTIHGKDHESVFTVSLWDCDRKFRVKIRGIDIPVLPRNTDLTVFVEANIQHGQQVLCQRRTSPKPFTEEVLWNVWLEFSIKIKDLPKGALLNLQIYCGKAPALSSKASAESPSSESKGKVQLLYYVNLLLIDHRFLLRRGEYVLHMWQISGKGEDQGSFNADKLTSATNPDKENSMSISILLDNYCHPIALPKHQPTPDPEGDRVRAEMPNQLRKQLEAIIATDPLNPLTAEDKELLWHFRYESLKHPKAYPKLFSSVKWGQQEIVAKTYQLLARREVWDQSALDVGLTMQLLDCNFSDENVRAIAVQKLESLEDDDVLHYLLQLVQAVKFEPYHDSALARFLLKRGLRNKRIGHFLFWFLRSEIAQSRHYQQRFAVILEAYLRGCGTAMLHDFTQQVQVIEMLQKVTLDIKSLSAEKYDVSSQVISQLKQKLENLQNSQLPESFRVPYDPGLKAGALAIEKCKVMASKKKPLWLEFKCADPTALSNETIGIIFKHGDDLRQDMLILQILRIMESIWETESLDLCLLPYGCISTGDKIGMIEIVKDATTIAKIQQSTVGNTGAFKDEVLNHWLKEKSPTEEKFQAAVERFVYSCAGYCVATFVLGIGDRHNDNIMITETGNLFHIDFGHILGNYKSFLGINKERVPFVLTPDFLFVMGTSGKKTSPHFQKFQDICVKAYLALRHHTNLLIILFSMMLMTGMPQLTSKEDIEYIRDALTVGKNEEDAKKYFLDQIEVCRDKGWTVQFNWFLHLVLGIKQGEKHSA
Test: Inhibition of PI3Kgamma using diC8-tagged PIP2 as substrate after 30 to 60 mins by TAMRA-based fluorescence polarization assay

- structure.smiles.string: "CNC(=O)Nc1ccc(-c2cc(-c3ccnc(Nc4cccc(S(N)(=O)=O)c4)n3)ccn2)cc1"
  IC50 / nM: 91
- structure.smiles.string: "CCN(CC)S(=O)(=O)c1cccc(Nc2nccc(-c3ccnc(-c4ccc(NC(=O)NC)cc4)c3)n2)c1"
  IC50 / nM: 59
- structure.smiles.string: "CCN(CC)S(=O)(=O)c1cc(Nc2nccc(-c3ccnc(-c4ccc(NC(=O)NC)cc4)c3)n2)ccc1Cl"
  IC50 / nM: 60
- structure.smiles.string: "CNC(=O)Nc1ccc(-c2cc(-c3ccnc(Nc4ccc(C)c(S(=O)(=O)NC)c4)n3)ccn2)cc1"
  IC50 / nM: 63
- structure.smiles.string: "CNC(=O)Nc1ccc(-c2cc(-c3ccnc(Nc4ccc(Cl)c(S(=O)(=O)N(C)C)c4)n3)ccn2)cc1"
  IC50 / nM: 54
- structure.smiles.string: "CCN(CC)S(=O)(=O)c1cc(Nc2nccc(-c3ccnc(-c4ccc(NC(=O)NC)cc4)c3)n2)ccc1C"
  IC50 / nM: 93
- structure.smiles.string: "CNC(=O)Nc1ccc(-c2cc(-c3ccnc(Nc4cccc(S(=O)(=O)NC)c4)n3)ccn2)cc1"
  IC50 / nM: 82
- structure.smiles.string: "CNC(=O)Nc1ccc(-c2cc(-c3ccnc(Nc4ccc(C)c(S(=O)(=O)N(C)C)c4)n3)ccn2)cc1"
  IC50 / nM: 72
